Test: Pharmacokinetics of JHG components in control rats after intragastric administration of JHGs (plasma, Orbitrap Fusion MS)
Format: in vivo, Sprague Dawley (SD) rats
Conditions: male, Sprague Dawley, rat, plasma, po, 5.7 g/kg/day, JHGs low dose 5.70 g/kg/d, read-out: MRT(0-t)
Experimental: Healthy male Sprague Dawley (SD) rats of SPF grade (240 ± 20 g) were purchased from Sipeifu (Beijing, China) Biotechnology Co., Ltd. (Beijing, China), Certificate of Conformity No.: SCYK (Beijing, China) 2019-0015, Animal Quality Certificate No.: 110324220102348616. They were housed in the Animal Center of Henan University of Traditional Chinese Medicine, which passed the ethical audit, ethics number: DWLL202208003, breeding Co. 24 °C, relative humidity 50 ± 2%. […]
MEASUREMENT LABEL: MRT last (h)
Use h as the unit, but write only the number.

{"COMPOUND": "C[C@@H]1O[C@@H](O[C@@H]2[C@@H](O)[C@H](OCCc3ccc(O)c(O)c3)O[C@H](COC(=O)/C=C/c3ccc(O)c(O)c3)[C@H]2O)[C@H](O)[C@H](O)[C@H]1O [Isoacteoside]", "MRT last, h": 7.15}
{"COMPOUND": "O=c1cc(-c2ccc(O)cc2)oc2cc(OC3OC(CO)C(O)C(O)C3O)cc(O)c12 (stereo not shown) [Apigenin-7-glucoside]", "MRT last, h": 8.84}
{"COMPOUND": "COc1ccc(-c2cc(=O)c3c(OC)c(OC)c(OC)c(OC)c3o2)cc1OC", "MRT last, h": 8.63}

# MRT last (compound: CC1CCC2N(C1)CC1C3CC4C(CC(O)C5CC(O)CCC54C)C3CCC1C2(C)O (stereo not shown) ) is 11.1
